Test system: RIOK2
Conditions: Compound Concentration (nM):1000
PARAMETER: Percent Control (%)
Dear colleague, please return just the value in %, with no unit written.

// known answers, use as guide
| COMPOUND | PARAMETER | QUANTITATIVE_RESULT |
| --- | --- | --- |
| CN1CCN(C(=O)c2ccc(NC(=O)Nc3ccc(N(C)c4ccnc(Nc5ccc(CS(C)(=O)=O)cc5)n4)cc3)cc2)CC1.Cl [GW830263A] | Percent Control | 21 |
| COc1cc(C)c(N(C)C(=O)CN(C)C)cc1Nc1nc(Nc2cccc(F)c2C(N)=O)c2cc[nH]c2n1 [GSK2219385] | Percent Control | 74 |
| COc1ccc2c(-c3ccnc(Nc4cccc(OC(F)(F)F)c4)n3)cnn2n1 [GW810372X] | Percent Control | 29 |

Ask | API: value(readout=Percent Control, system=RIOK2) for record COc1cccc(-c2c[nH]c3c(N/N=C/c4ccncc4)ncnc23)c1 [GW814408X];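 further: KINOMEscan scanMAX binding as percent activity remaining versus control; lower means stronger binding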
Reply | 76

Ask | Item: CC(C)COC(=O)c1ccc2c(c1)/C(=C/Nc1ccc(S(N)(=O)=O)cc1)C(=O)N2 [GW416981X] Test system: RIOK2 Read-out: Percent Control Value: ?;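 further: KINOMEscan scanMAX binding as percent activity remaining versus control; lower means stronger binding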
Reply | 100

Ask | Give Percent Control (RIOK2) of the following compound: Cl.O=C(O[C@H]1CN[C@H](C#Cc2cc3ncnc(Nc4ccc5c(cnn5Cc5ccccc5)c4)c3s2)C1)N1CCOCC1 [GSK200398A]
Reply | 100

Ask | Under RIOK2: Percent Control value of C/C(Nc1ccc(S(N)(=O)=O)cc1)=C1/C(=O)Nc2ccccc21 [GW335962X] ?
Reply | 100

Ask | Reported Percent Control for RIOK2, given Nc1ncnc2occ(-c3ccc(NC(=O)Nc4cc(C(F)(F)F)ccc4F)cc3)c12 [GW770249X] ?
Reply | 100

Ask | Find the measured Percent Control: item NS(=O)(=O)c1ccc(N/N=C2\C(=O)Nc3ccc(Cl)cc32)cc1 [GW280670X] , target or system RIOK2.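 Further: KINOMEscan scanMAX binding as percent activity remaining versus control; lower means stronger binding.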
Reply | 100

Ask | Recorded Percent Control for CCn1c(-c2nonc2N)nc2c(C#CC(C)(C)O)nc(OCCNC)cc21.Cl [GSK949675] with RIOK2, please?
Reply | 91

Ask | Short answer please: Percent Control, RIOK2, entry NS(=O)(=O)c1ccc(N/N=C2\C(=O)Nc3ccc(C(=O)NCc4ccncc4)cc32)cc1 [GW300657X]
Reply | 77

Ask | Which Percent Control is reported with RIOK2 for this entry: CCS(=O)(=O)c1ccc(OC)c(Nc2ncc(-c3cccc(OC)c3)o2)c1 [GW580509X] ?
Reply | 82

Ask | Please provide the recorded Percent Control for Cl.O=S1CCN(Cc2ccc(-c3ccc4ncnc(Nc5ccc(OCc6ccccc6)c(F)c5)c4c3)o2)CC1 [GW576924A] , tested on RIOK2.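 Further: KINOMEscan scanMAX binding as percent activity remaining versus control; lower means stronger binding.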
Reply | 83

Ask | Form field: Percent Control recorded for Cc1cc(O)cc(C)c1/C=C/c1cncc(C(N)=O)c1 [GW435821X] with RIOK2 (enter value)
Reply | 100
